Ref: PubChem BioAssay AID1963836

Items are presented alongside their recorded viability, T/C.
System: 857933-349-R-J2-PDC complex spheroid viability;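 also: spheroids exposed to compounds for seven days before readout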
Test: Anticancer human tumor 857933-349-R-J2-PDC patient-derived colon adenocarcinoma cell line growth inhibition [POLQ]
Conditions: second compound 3.16 µM; first compound 0.1 µM; hits give low values
readout_kind: viability, T/C

COc1cc(C2c3cc4c(cc3C(OC3OC5COC(C)OC5C(O)C3O)C3COC(=O)C23)OCO4)cc(OC)c1O (stereo not given) + COC1C(OC(N)=O)C(O)C(Oc2ccc3c(O)c(NC(=O)c4ccc(O)c(CC=C(C)C)c4)c(=O)oc3c2C)OC1(C)C : 99%
CC1COCCN1c1cc(-c2ccnn2C)c2ccnc(-c3ccn[nH]3)c2n1 (stereo not given) + COC1C(OC(N)=O)C(O)C(Oc2ccc3c(O)c(NC(=O)c4ccc(O)c(CC=C(C)C)c4)c(=O)oc3c2C)OC1(C)C : 57.5%
C=CC(=O)N1CCN(c2nc(=O)n(-c3c(C)ccnc3C(C)C)c3nc(-c4c(O)cccc4F)c(F)cc23)C(C)C1 (stereo not given) + COC1C(OC(N)=O)C(O)C(Oc2ccc3c(O)c(NC(=O)c4ccc(O)c(CC=C(C)C)c4)c(=O)oc3c2C)OC1(C)C : 116%
COc1ccc([C@@H](O)c2cc(-c3ncnc4cc(N5CCOCC5)ccc34)c(F)cc2Cl)nn1 + Nc1ccc(C#CCN(C(=O)Cc2ncc(C(F)(F)F)cc2C(F)(F)F)c2ccc(F)cc2)nn1 : 95.8%
CC1COCCN1c1cc(C2(S(C)(=N)=O)CC2)nc(-c2ccnc3[nH]ccc23)n1 (stereo not given) + Cc1cccc(N(C)C(=O)C2C(O)CCN2c2nc(C)cc(C(F)(F)F)c2C#N)c1 : 98.2%
COc1cc2cc(C(=O)CCC(=O)O)sc2cc1OC + Nc1ccc(C#CCN(C(=O)Cc2ncc(C(F)(F)F)cc2C(F)(F)F)c2ccc(F)cc2)nn1 : 98.7%
CCc1cc2c(N3CCc4c(cc(Cn5ccnc5)cc4-c4cn(C)nc4C(F)(F)F)C3=O)cc(C)nc2c(OC)n1 + COC1C(OC(N)=O)C(O)C(Oc2ccc3c(O)c(NC(=O)c4ccc(O)c(CC=C(C)C)c4)c(=O)oc3c2C)OC1(C)C : 76.1%
O=c1[nH]cc(F)c(=O)[nH]1 + COC1C(OC(N)=O)C(O)C(Oc2ccc3c(O)c(NC(=O)c4ccc(O)c(CC=C(C)C)c4)c(=O)oc3c2C)OC1(C)C : 86.3%
O=C(Nc1ccc(O)c(NS(=O)(=O)c2ccc(F)cc2)c1)c1ccc(-c2ccccc2)cc1 + COC1C(OC(N)=O)C(O)C(Oc2ccc3c(O)c(NC(=O)c4ccc(O)c(CC=C(C)C)c4)c(=O)oc3c2C)OC1(C)C : 86.9%
CC1COCCN1c1cc(C2(S(C)(=N)=O)CC2)nc(-c2ccnc3[nH]ccc23)n1 (stereo not given) + COC1C(OC(N)=O)C(O)C(Oc2ccc3c(O)c(NC(=O)c4ccc(O)c(CC=C(C)C)c4)c(=O)oc3c2C)OC1(C)C : 89.5%
CCc1c2c(nc3ccc(O)cc13)-c1cc3c(c(=O)n1C2)COC(=O)[C@]3(O)CC + Nc1ccc(C#CCN(C(=O)Cc2ncc(C(F)(F)F)cc2C(F)(F)F)c2ccc(F)cc2)nn1 : 17.6%
CC[C@@]1(O)C(=O)OCc2c1cc1n(c2=O)Cc2cc3c(CN(C)C)c(O)ccc3nc2-1 + Nc1ccc(C#CCN(C(=O)Cc2ncc(C(F)(F)F)cc2C(F)(F)F)c2ccc(F)cc2)nn1 : 42.9%
C=CCn1c(=O)c2cnc(Nc3ccc(N4CCN(C)CC4)cc3)nc2n1-c1cccc(C(C)(C)O)n1 + COC1C(OC(N)=O)C(O)C(Oc2ccc3c(O)c(NC(=O)c4ccc(O)c(CC=C(C)C)c4)c(=O)oc3c2C)OC1(C)C : 74.2%
O=c1[nH]cc(F)c(=O)[nH]1 + Cc1cccc(N(C)C(=O)C2C(O)CCN2c2nc(C)cc(C(F)(F)F)c2C#N)c1 : 92.6%
CCCS(=O)(=O)Nc1ccc(F)c(C(=O)c2c[nH]c3ncc(-c4ccc(Cl)cc4)cc23)c1F + Cc1cccc(N(C)C(=O)C2C(O)CCN2c2nc(C)cc(C(F)(F)F)c2C#N)c1 : 96%
CC1COCCN1c1cc(C2(O)CC3CCC(C2)O3)c2cnn(-c3ccn[nH]3)c2n1 (stereo not given) + Nc1ccc(C#CCN(C(=O)Cc2ncc(C(F)(F)F)cc2C(F)(F)F)c2ccc(F)cc2)nn1 : 72.3%
CCc1cc2c(N3CCc4c(cc(Cn5ccnc5)cc4-c4cn(C)nc4C(F)(F)F)C3=O)ccnc2c(OC)n1 + Nc1ccc(C#CCN(C(=O)Cc2ncc(C(F)(F)F)cc2C(F)(F)F)c2ccc(F)cc2)nn1 : 89.9%
COc1cccc(OCCCN)c1-c1cc(Nc2cnc(C#N)cn2)n[nH]1 + COC1C(OC(N)=O)C(O)C(Oc2ccc3c(O)c(NC(=O)c4ccc(O)c(CC=C(C)C)c4)c(=O)oc3c2C)OC1(C)C : 56.2%
COc1cccc(OCCCN)c1-c1cc(Nc2cnc(C#N)cn2)n[nH]1 + Nc1ccc(C#CCN(C(=O)Cc2ncc(C(F)(F)F)cc2C(F)(F)F)c2ccc(F)cc2)nn1 : 66.8%
Cn1ncnc1[C@H]1c2n[nH]c(=O)c3cc(F)cc(c23)N[C@@H]1c1ccc(F)cc1 + COC1C(OC(N)=O)C(O)C(Oc2ccc3c(O)c(NC(=O)c4ccc(O)c(CC=C(C)C)c4)c(=O)oc3c2C)OC1(C)C : 77.7%
